Observed pKd, system Hsp90α (Homo sapiens (Human)).
Notebook: values listed as pKd are -log10 of the concentration (mol/L).

-- ask Write pKd of COC(=O)c1c(O)cc(O)c(Cl)c1CCc1ccc(OC)cc1Cc1ccccc1 [Compound 17] ; system used: Hsp90α (Homo sapiens (Human))
-- reply 5.59

-- ask Tell me its pKd on Hsp90α (Homo sapiens (Human)): COC(=O)c1c(O)cc(O)c(Cl)c1CCc1ccccc1Cc1cccc(Cl)c1 [Compound 28]
-- reply 4.35

-- ask State pKd (Hsp90α (Homo sapiens (Human))) of COC(=O)c1c(O)cc(O)c(Cl)c1CCc1cc(O)ccc1Cc1ccccc1 [Compound 22] .
-- reply 5.68

-- ask Would you please give the reported pKd of COC(=O)c1c(O)cc(O)c(Cl)c1CCc1cccc(O)c1Cc1ccccc1 [Compound 24] with Hsp90α (Homo sapiens (Human))?
-- reply 5.70

-- ask Return reported pKd for target or system Hsp90α (Homo sapiens (Human)), item COC(=O)c1c(O)cc(O)c(Cl)c1CCc1cccc(OC)c1Cc1ccccc1 [Compound 18] .
-- reply 4.86

-- ask Given COC(=O)c1c(O)cc(O)c(Cl)c1CCc1cc(OC)ccc1Cc1ccccc1 [Compound 16] , report its pKd on Hsp90α (Homo sapiens (Human)).
-- reply 5.66
